experimental-target: T1, C-terminally FLAG-tagged human Gas6 recombinant protein (hGas6-F) (human, UniProt Q14393 31-678, gamma-carboxylated glutamic acid residues in the Gla domain (producer cells co-express rat VKOR and human GGCX); positions not given)
T1 construct: also called human Gas6-F; human Gas6 protein
T1 sequence: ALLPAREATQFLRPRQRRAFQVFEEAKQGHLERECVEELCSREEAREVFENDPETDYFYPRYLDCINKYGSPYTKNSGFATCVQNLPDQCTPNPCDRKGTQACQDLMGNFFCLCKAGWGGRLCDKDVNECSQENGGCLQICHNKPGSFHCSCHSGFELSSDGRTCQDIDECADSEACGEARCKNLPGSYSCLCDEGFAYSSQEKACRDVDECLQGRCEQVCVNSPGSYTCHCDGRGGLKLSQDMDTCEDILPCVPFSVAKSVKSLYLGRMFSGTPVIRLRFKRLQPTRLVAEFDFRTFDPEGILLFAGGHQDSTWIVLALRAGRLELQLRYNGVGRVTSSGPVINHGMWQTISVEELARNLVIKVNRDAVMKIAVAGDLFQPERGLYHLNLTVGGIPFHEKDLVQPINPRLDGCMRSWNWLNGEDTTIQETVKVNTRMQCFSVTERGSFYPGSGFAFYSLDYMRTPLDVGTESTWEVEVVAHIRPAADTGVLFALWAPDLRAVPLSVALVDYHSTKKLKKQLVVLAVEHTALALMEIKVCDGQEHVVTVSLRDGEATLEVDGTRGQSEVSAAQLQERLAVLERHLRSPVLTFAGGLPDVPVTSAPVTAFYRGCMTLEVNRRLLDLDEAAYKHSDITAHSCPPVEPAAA
test: SPR Biacore T100, captured antibody, Gas6 analyte, retest
measurement-kind: kon (M⁻¹ s⁻¹)
Answer with a number only, understood to be in M⁻¹ s⁻¹.

Prompt: Quick one: kon of hzKM5321 LV6HV2b antibody (antibody, V domains shown, Humanized; variant human IgG4 constant region (EU S228P, L235E, R409K), human kappa; also called B-24; LV6HV2b) VH: QVHLVQSGPELKKPGASVKISCKASGYTFTNYGMNWVRQAPGQGLEWMGWINTNTGEPTYTEEFKGRFVFSLDTSVTTSYLQISTLKAEDTATYFCARDEGWFVYWGQGTLVTVSS VL: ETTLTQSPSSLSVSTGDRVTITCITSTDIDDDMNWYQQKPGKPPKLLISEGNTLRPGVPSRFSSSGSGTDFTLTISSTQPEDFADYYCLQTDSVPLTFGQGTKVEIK ?
Completion: 319000

Prompt: Field request: kon | item: KM5321 chimeric antibody (antibody, V domains shown, also called KM5321 chimera; B-01) VH: QIQLVQSGPELKKPGETVKISCRASGYTFTNYGMNWVKQAPGKGLKWMGWINTNTGEPTYTEEFKGRFAFSLETSATTAYLQINDLKNEDTATYFCARDEGWFVYWGQGTLITVSA VL: ETTVTQSPASLSVATGEKVTIRCITSTDIDDDMNWYQQKPGEPPKLLISEGNTLRPGVPSRFSSSGYGTDFVFTIENTLSEDVADYYCLQTDSVPLTFGAGTKLELK
Completion: 380000
